These entries and their values trace back to patent US12673918B2.

# System: HCT116
# ASSAY PROCEDURE: MTT cytotoxicity assay, HCT116
# CONDITION DESCRIPTION: read-out: IC50 HCT116; Table 3; MTT, 48 hr; Colon
MEASURED ATTRIBUTE: IC50 (nM)
One number for each entry, in nM.

1) CC(C)C[C@H](NC(=O)[C@H](Cc1ccccc1)NC(=O)c1cnccn1)B(O)O [Bortezomib, bortezomib, reference compound]	3.2

Retrieve IC50 measured for N[C@@H](Cc1ccccc1)C(=O)N1C/C(=C\c2ccc([N+](=O)[O-])cc2)C(=O)/C(=C/c2ccc([N+](=O)[O-])cc2)C1 [RA183, reference compound] and print it. 193

---

Answer each item with its documented IC50.
# System: VU93
Answers are plain numbers, in nM.

Give IC50 for each of the items listed below.
1. C[C@H]1/C(=C\c2ccc([N+](=O)[O-])cc2)C(=O)/C(=C/c2ccc([N+](=O)[O-])cc2)CN1C(=O)[C@@H](N)Cc1ccccc1
2. CC1/C(=C\c2ccc([N+](=O)[O-])cc2)C(=O)/C(=C/c2ccc([N+](=O)[O-])cc2)CN1C(=O)[C@@H](N)Cc1ccccc1 (mixture of isomers)

100
625

---

Give measured IC50 for each item. Keep answers brief.
# Test system: PC3
# ASSAY PROCEDURE: MTT cytotoxicity assay, PC3
# CONDITION DESCRIPTION: Homo sapiens, PC-3, 48 h, read-out: IC50 PC3
Answers are plain numbers, in nM.

1) O=C(CCl)N[C@@H](Cc1ccccc1)C(=O)N1C/C(=C\c2ccc([N+](=O)[O-])cc2)C(=O)/C(=C/c2ccc([N+](=O)[O-])cc2)C1	27

Could you now look at the following molecule, please?
# return recorded IC50 for entry N[C@@H](Cc1ccccc1)C(=O)N1C/C(=C\c2ccc([N+](=O)[O-])cc2)C(=O)/C(=C/c2ccc([N+](=O)[O-])cc2)C1 [RA183, reference compound] 133

---

# ASSAY PROCEDURE: Repeat dose MTD in healthy female CD1 mice
# CONDITION DESCRIPTION: mouse, in vivo, 3 repeated doses every third day
Provide the recorded MTD for the entries that follow.
Please answer using the number first and the unit second.

1. C[C@H]1/C(=C\c2ccc([N+](=O)[O-])cc2)C(=O)/C(=C/c2ccc([N+](=O)[O-])cc2)CN1C(=O)[C@@H](N)Cc1ccccc1	20 mg/kg

Retrieve MTD measured for CC1/C(=C\c2ccc([N+](=O)[O-])cc2)C(=O)/C(=C/c2ccc([N+](=O)[O-])cc2)CN1C(=O)[C@H](Cc1ccccc1)NC(=O)CCl (some centres unmarked) and print it. 10 mg/kg

---

# System: PEO4
# CONDITION DESCRIPTION: read-out: cytotoxicity IC50 PEO4; Tables 3A/4B/4C; MTT assay
MEASURED ATTRIBUTE: IC50

Return reported IC50 for target or system PEO4, item N.N.[Cl][Pt][Cl] [CP, Cisplatin] . 19.5 µM

---

# System: OVCAR3
# CONDITION DESCRIPTION: human
MEASURED ATTRIBUTE: IC50 (nM)
Numbers only, in nM.

Find the measured IC50 of `C[C@H]1/C(=C\c2ccc([N+](=O)[O-])cc2)C(=O)/C(=C/c2ccc([N+](=O)[O-])cc2)CN1C(=O)[C@@H](N)Cc1ccccc1` and report it. 69

---

# Tested on: DLD-BRCA2-Ve
MEASURED ATTRIBUTE: IC50 (µM)
One number for each entry, in µM.

Supply recorded IC50 for `C=CC(=O)N1CC/C(=C\c2ccc(F)c([N+](=O)[O-])c2)C(=O)/C(=C/c2ccc(F)c([N+](=O)[O-])c2)C1` here. 8.54

---

# Tested on: SiHa
MEASURED ATTRIBUTE: IC50 (nM)
Numbers only, in nM.

For the molecule C=CC(=O)N1CC/C(=C\c2ccc(F)c([N+](=O)[O-])c2)C(=O)/C(=C/c2ccc(F)c([N+](=O)[O-])c2)C1 [VLX1570] , report IC50. 54

---

# Test system: PEA2
# CONDITION DESCRIPTION: read-out: cytotoxicity IC50 PEA2; Tables 3A/4B/4C; MTT assay
MEASURED ATTRIBUTE: IC50 (µM)
Answers are plain numbers, in µM.

Using the record for N.N.[Cl][Pt][Cl] [CP, Cisplatin] , state its measured IC50. 9.85

---

# System: ES2
# ASSAY PROCEDURE: MTT cytotoxicity assay, ES2
# CONDITION DESCRIPTION: read-out: cytotoxicity IC50 ES2; Tables 3A/4B/4C; MTT assay
What pIC50 was measured for each of the following?
Numbers only, as −log10 of the molar value.

1) CC1/C(=C\c2ccccc2F)C(=O)/C(=C/c2ccccc2F)CN1C(=O)[C@@H](N)Cc1ccccc1 (mixture of isomers) [RA467]	6.95
2) CC1/C(=C\c2ccc(F)cc2)C(=O)/C(=C/c2ccc(F)cc2)CN1C(=O)[C@@H](N)Cc1ccccc1 (mixture of isomers) [RA462]	7.02

Determine from records and report pIC50 for N[C@@H](Cc1ccccc1)C(=O)N1C/C(=C\c2ccc([N+](=O)[O-])cc2)C(=O)/C(=C/c2ccc([N+](=O)[O-])cc2)C1 [RA183, reference compound] 7.12

---

# ASSAY PROCEDURE: in vivo
# CONDITION DESCRIPTION: female, CD1, mouse, ip
MEASURED ATTRIBUTE: NOAEL (mg/kg)
Numbers only, in mg/kg.

# count of solved cases: 2
1. CC1/C(=C\c2ccc([N+](=O)[O-])cc2)C(=O)/C(=C/c2ccc([N+](=O)[O-])cc2)CN1C(=O)[C@H](Cc1ccccc1)NC(=O)CCl (stereo partly drawn) [RA414]	3
2. CC(C)C[C@H](NC(=O)[C@H](Cc1ccccc1)NC(=O)c1cnccn1)B(O)O [Bortezomib, bortezomib, reference compound]	0.75

Please look at the following molecule next.
Identify measured NOAEL corresponding to `C[C@H]1/C(=C\c2ccc([N+](=O)[O-])cc2)C(=O)/C(=C/c2ccc([N+](=O)[O-])cc2)CN1C(=O)[C@@H](N)Cc1ccccc1` 30

---

# Test system: ANBL6-V10R
# ASSAY PROCEDURE: MTT cytotoxicity assay, ANBL6-V10R
# Format: cell-based
# CONDITION DESCRIPTION: Table 3; MTT, 48 hr; Multiple Myeloma, bortezomib resistant; read-out: IC50 ANBL6-V10R
MEASURED ATTRIBUTE: IC50 (nM)
Numbers only, in nM.

State its IC50: N[C@@H](Cc1ccccc1)C(=O)N1C/C(=C\c2ccc(Cl)c(Cl)c2)C(=O)/C(=C/c2ccc(Cl)c(Cl)c2)C1 [RA190, reference compound] 55

---

# System: TOV21G
# ASSAY PROCEDURE: MTT cytotoxicity assay, TOV21G
# CONDITION DESCRIPTION: read-out: IC50 TOV21G; Table 3; MTT, 48 hr; Ovarian
What pIC50 was measured for each of the following?
Numbers only, as −log10 of the molar value.

1) N[C@@H](Cc1ccccc1)C(=O)N1C/C(=C\c2ccc(Cl)c(Cl)c2)C(=O)/C(=C/c2ccc(Cl)c(Cl)c2)C1 [RA190, reference compound]	7.08

// fetch pIC50 given entry N[C@@H](Cc1ccccc1)C(=O)N1C/C(=C\c2ccc([N+](=O)[O-])cc2)C(=O)/C(=C/c2ccc([N+](=O)[O-])cc2)C1 [RA183, reference compound] 7.36

---

Exercise: for every item that follows, state its recorded IC50.
# Test system: SSC90
# ASSAY PROCEDURE: MTT cytotoxicity assay, SSC90
# CONDITION DESCRIPTION: read-out: cytotoxicity IC50 SSC90; Tables 3A/4B/4C; MTT assay

1) N[C@@H](Cc1ccccc1)C(=O)N1C/C(=C\c2ccc(Cl)c(Cl)c2)C(=O)/C(=C/c2ccc(Cl)c(Cl)c2)C1 [RA190, reference compound]	625 nM
2) CC(C)C[C@H](NC(=O)[C@H](Cc1ccccc1)NC(=O)c1cnccn1)B(O)O [Bortezomib, bortezomib, reference compound]	15 nM

Please look at this compound and report its IC50: CC1/C(=C\c2ccc([N+](=O)[O-])cc2)C(=O)/C(=C/c2ccc([N+](=O)[O-])cc2)CN1C(=O)[C@H](Cc1ccccc1)NC(=O)CCl (stereo partly drawn) [RA414] < 20 nM

---

Consider the following molecules; for each one, report its pIC50.
# Tested on: MDA-MB-468
# ASSAY PROCEDURE: cells
# CONDITION DESCRIPTION: Homo sapiens, MDA-MB-468, read-out: cytotoxicity IC50 MDA-MB-468
One number for each entry, as −log10 of the molar value.

Solved cases (2 shown):
1. N[C@@H](Cc1ccccc1)C(=O)N1C/C(=C\c2ccc(Cl)c(Cl)c2)C(=O)/C(=C/c2ccc(Cl)c(Cl)c2)C1 [RA190, reference compound]	6.52
2. N[C@@H](Cc1ccccc1)C(=O)N1C/C(=C\c2ccc([N+](=O)[O-])cc2)C(=O)/C(=C/c2ccc([N+](=O)[O-])cc2)C1 [RA183, reference compound]	6.60

Next:
Fill in reported pIC50 for this entry: `C[C@H]1/C(=C\c2ccc([N+](=O)[O-])cc2)C(=O)/C(=C/c2ccc([N+](=O)[O-])cc2)CN1C(=O)[C@@H](N)Cc1ccccc1` 7.12
